Source: PubChem BioAssay (Tox21)

Assay: qHTS assay to identify small molecule agonists of the estrogen receptor alpha (ER-alpha) signaling pathway in the presence of an antagonist - cell viability counter screen (AID 1259386);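 further: cells exposed to compounds for 22 h at 37 °C before the viability read; nearly all actives have a fitted effect of over 30% in size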
Conditions: VM7Luc4E2 viability, CellTiter-Fluor fluorescence, 22 h; series mostly up to 92.4 µM
Records with an inconclusive call do not appear. Calls of active or inactive are those of the source. The call rests on the fitted dose curve; in most records, active means well fitted cell-killing curve with a large enough effect in the repeat runs; inconclusive means weak or mixed curves, or effect the other way; inactive means no such curve, though single readings can be large or run the other way.
Permitted responses: YES (active), NO (inactive)

A selection of reference data follows.
compound	assigned_category
CCCCCCCCCCCCCC[P+](CCCCCC)(CCCCCC)CCCCCC (tested in a mixture with another compound)	YES
ClCc1ccccc1CCl	NO
CCCCCCCCCBr	NO
COc1ccc(OC)c(CC(C)N)c1 (stereo not drawn)	NO
CCCCCCCCCCCCBr	NO

[Q] Lab log entry: `CCOCn1c(-c2ccc(Cl)cc2)c(C#N)c(Br)c1C(F)(F)F` — outcome as called in the assay?
[A] YES

[Q] Hello, I am checking results. What call was entered for `Cc1ccc(C(=O)Cl)cc1` ?
[A] NO

[Q] Test call for this compound, please: `C[C@@H]1O[C@@H](O[C@H]2C[C@@H](O)[C@]3(CO)[C@H]4[C@H](O)C[C@]5(C)[C@@H](C6=CC(=O)OC6)CC[C@]5(O)[C@@H]4CC[C@]3(O)C2)[C@H](O)[C@H](O)[C@H]1O`
[A] NO

---

Assay: qHTS assay to identify small molecule that activate the aryl hydrocarbon receptor (AhR) signaling pathway - cell viability counter screen (AID 743086); further: nearly all actives have a fitted effect of over 45% in size
Settings: HepG2-AhR-luc viability, CellTiter-Fluor, 24 h; series mostly up to 70.3 µM
Records with an inconclusive call do not appear. Calls of active or inactive are those of the source. Calls come from the whole dose curve; as a rule, active = well fitted cell-killing curve with a large enough effect in the repeat runs; inconclusive = weak or mixed curves, or effect the other way; inactive = flat fitted curve, though single readings scatter.
A correct response names exactly one class from active, inactive

query_smiles	assigned_category
O=[N+]([O-])c1cc(C(F)(F)F)c(Cl)c([N+](=O)[O-])c1Cl	active
CC(=O)[O-].CC(=O)[O-].O.O.[Cd+2]	active
O=[N+]([O-])O.O=[N+]([O-])O.[Cd]	active

[Q] Just curious, what result did `Clc1ccc(C(Cl)(Cl)Cl)c(Cl)c1` get here?
[A] inactive

[Q] Write down the call the test reported for this molecule. Item: `CC(C)(O)c1cnn2c(-c3ccc(F)c(-c4c(F)cccc4C#N)c3)cnc2n1`
[A] inactive

[Q] Short answer needed: outcome of this test for `BrC(Br)C(Br)(Br)Br` ?
[A] inactive

[Q] Hi, do you know how `CS(=O)(=O)c1ccc(C(=O)C2C(=O)CCCC2=O)c([N+](=O)[O-])c1` came out in this test?
[A] inactive

[Q] Look up the recorded call for `Fc1cccc(Cl)c1CCl` in this test.
[A] inactive

[Q] Which outcome was assigned to `CN(C)CCc1c[nH]c2cccc(O)c12` in this test?
[A] inactive

[Q] For `ClC1=C(Cl)[C@]2(Cl)[C@H]3[C@H]([C@H]4C=C[C@H]3C4)[C@@]1(Cl)C2(Cl)Cl` , which call appears in the assay record?
[A] inactive

---

Target: Peroxisome proliferator-activated receptor gamma (Homo sapiens) (UniProt P37231)
Sequence (P37231 whole entry, looked up): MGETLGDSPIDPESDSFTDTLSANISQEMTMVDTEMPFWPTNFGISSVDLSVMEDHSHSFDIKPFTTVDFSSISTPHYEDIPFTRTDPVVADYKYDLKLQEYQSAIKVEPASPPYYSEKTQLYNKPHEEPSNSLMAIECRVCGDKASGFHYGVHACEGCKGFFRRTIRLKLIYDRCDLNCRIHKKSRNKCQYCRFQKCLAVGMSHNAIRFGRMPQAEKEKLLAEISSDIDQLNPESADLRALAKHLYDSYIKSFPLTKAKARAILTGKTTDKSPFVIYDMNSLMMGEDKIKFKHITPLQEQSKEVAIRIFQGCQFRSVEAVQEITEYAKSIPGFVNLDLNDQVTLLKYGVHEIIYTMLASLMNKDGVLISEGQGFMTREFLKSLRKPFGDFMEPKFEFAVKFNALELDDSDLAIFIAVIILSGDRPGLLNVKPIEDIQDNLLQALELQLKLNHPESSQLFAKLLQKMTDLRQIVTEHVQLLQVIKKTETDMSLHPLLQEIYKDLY
Assay: qHTS assay to identify small molecule agonists of the peroxisome proliferator-activated receptor gamma (PPARg) signaling pathway (AID 743094)
Conditions: HEK293H PPARg-UAS-bla, beta-lactamase FRET ratio, 17 h; series mostly up to 57 µM
Inconclusive results are not listed. Calls of active or inactive are those of the source. The call rests on the fitted dose curve; in most records, active means well fitted activation curve with a large enough effect in the signal ratio in the repeat runs (not every such curve was filed as active); inconclusive means weak or mixed curves, or effect the other way; inactive means no such curve, though single readings can be large or run the other way; the % refers to the signal ratio.
Your response should consist of one outcome taken from Y (active), N (inactive)

These recorded examples may help you get a feel for the data.
compound	target_or_system	assigned_category
N#CCCSCCC#N	Peroxisome proliferator-activated receptor gamma (Homo sapiens) (UniProt P37231)	N
BrCBr	Peroxisome proliferator-activated receptor gamma (Homo sapiens) (UniProt P37231)	N
CCCN(CCC)CCc1c[nH]c2ccccc12	Peroxisome proliferator-activated receptor gamma (Homo sapiens) (UniProt P37231)	N

[Q] Dear colleague, could you share the recorded outcome for `Cc1c(Cl)c(=O)oc2cc(OP(=O)(OCCCl)OCCCl)ccc12` when you have a moment?
[A] N

[Q] Lab log entry: `COP(=O)(OC)SCn1c(=O)oc2cc(Cl)cnc21` — outcome as called in the assay?
[A] N
